# Experimental Target: human P2X2/3 receptors (Homo sapiens, UniProt P56373+Q9UBL9)
# Construct: expressed in transfected cells; host or cells: human astrocytoma 1321N1 (1312N1 [sic])
# Assay Summary: Intracellular calcium measurement, antagonist activity at human P2X2/3 receptors (hP2X23 1321N1), Fluo8
# Assay type: cell-based
# Protocol Conditions: ratio of column 4) hP2X2/3 to column 3) hP2X3, 1321N1
Parameter hP2X23/hP2X3* Selectivity (1321N1): see the listing below.
Hey, just send me the number, nothing else.

Worked cases, hP2X23/hP2X3* Selectivity (1321N1) given:
>>> result("Cc1ccc(-c2cc3n(CC(=O)Nc4ccc(F)cn4)c4c(c(=O)n3n2)CN(C(C)C)C4=O)cn1")
96
>>> result("CC(C)Nc1cc2n(CC(=O)Nc3ccc(F)cn3)c3c(c(=O)n2n1)CN(C(C)C)C3=O")
148
>>> result("Cc1ccc(-c2cc3n(CC(=O)Nc4ccc(F)cn4)c4c(c(=O)n3n2)CN(C(C)C)C4=O)nc1")
447

query: For CC(C)N1Cc2c(n(CC(=O)Nc3ccc(F)cn3)c3cc(C(=O)NCC4CC4)nn3c2=O)C1=O , what is its reported hP2X23/hP2X3* Selectivity (1321N1)?
result: 112

###

# Experimental Target: human P2X3 receptor (Homo sapiens)
# Assay Summary: Intracellular calcium measurement, antagonist activity at human P2X3 receptors (hP2X3 1321N1), Fluo8
# Assay type: cell-based
# Parameters: expressed in transfected cells; host or cells: human astrocytoma 1321N1 (1312N1 [sic])
# Protocol Conditions: column 3); 1321N1 cells, human P2X3, Fluo8, agonist ATP at EC50
Listed below: IC50 values for each entry.
Please give a number only; it is taken to be in nM.

Known results for compounds:
>>> result("CCc1cc2n(CC(=O)Nc3ccc(F)cn3)c3c(c(=O)n2n1)CN(C1CCN(C(=O)NC(C)C)C1)C3=O (racemic)")
125
>>> result("CCc1cc2n(CC(=O)Nc3ccc(F)cn3)c3c(c(=O)n2n1)CN(C1CCOCC1)C3=O")
410
>>> result("COCCNc1cc2n(CC(=O)Nc3ccc(F)cn3)c3c(c(=O)n2n1)CN(C(C)C)C3=O")
120

query: Would you kindly share the measured IC50 for CC(C)N1Cc2c(n(CC(=O)Nc3ccc(F)cn3)c3cc(CC4CCOCC4)nn3c2=O)C1=O ?
result: 26

###

# Experimental Target: human P2X3 receptor (Homo sapiens, UniProt P56373)
# Assay Summary: Intracellular calcium measurement to assess antagonist activity at human P2X3 receptors (hP2X3 CHO), photina luminescence
# Format: cell-based
# Set-up: expressed in transfected cells; host or cells: Chinese hamster ovary (CHO) cells
# Protocol Conditions: column 2), CHO cells, agonist α,β-methylene-ATP at EC50
# IC50 listing for each entry below
Your answer should be a plain number; it is taken to be in nM.

Examples with answers:
>>> result("CC(C)N1Cc2c(n(CC(=O)Nc3ccc(F)cn3)c3cc(C4CCN(C(=O)OC(C)(C)C)CC4)nn3c2=O)C1=O")
24
>>> result("CC(C)N1Cc2c(n(CC(=O)Nc3ccc(F)cn3)c3cc(CO)nn3c2=O)C1=O")
120
>>> result("CC(C)(O)CN1Cc2c(n(CC(=O)Nc3ccc(F)cn3)c3cc(C(C)(C)C)nn3c2=O)C1=O")
121

Okay, now this compound:
query: Returns the measured IC50 for the input compound. Input: CCc1cc2n(CC(=O)Nc3ccc(F)cn3)c3c(c(=O)n2n1)CN([C@@H](C)COC)C3=O
result: 59

###

molecules and their reported hP2X23/hP2X3* Selectivity (1321N1)
# Experimental Target: human P2X2/3 receptors (Homo sapiens, UniProt P56373+Q9UBL9)
# Construct: expressed in transfected cells; host or cells: human astrocytoma 1321N1 (1312N1 [sic])
# Assay Summary: Intracellular calcium measurement, antagonist activity at human P2X2/3 receptors (hP2X23 1321N1), Fluo8
# Type: cell-based
# Protocol Conditions: ratio of column 4) hP2X2/3 to column 3) hP2X3, 1321N1
# respond with the number and nothing more

Would you please look over these solved cases?
>>> result("COCC(C)N1Cc2c(n(CC(=O)Nc3ccc(F)cn3)c3cc(C(C)(C)C)nn3c2=O)C1=O (stereo not shown) [Example 25]")
624
>>> result("CC(C)(C)c1cc2n(CC(=O)Nc3ccc(F)cn3)c3c(c(=O)n2n1)CN(CCN1CCOCC1)C3=O [Example 138]")
107
>>> result("CCc1cc2n(CC(=O)Nc3ccc(F)cn3)c3c(c(=O)n2n1)CN(C[C@@H]1CN(C(=O)OC(C)(C)C)CCO1)C3=O [Example 90]")
27

query: Field request: hP2X23/hP2X3* Selectivity (1321N1) | item: CCc1cc2n(CC(=O)Nc3ccc(F)cn3)c3c(c(=O)n2n1)CN(C[C@H]1CCCO1)C3=O [Example 73]
result: 91

###

# Experimental Target: human P2X2/3 receptors (Homo sapiens, UniProt P56373+Q9UBL9)
# Construct: expressed in transfected cells; host or cells: human astrocytoma 1321N1 (1312N1 [sic])
# Assay Summary: Intracellular calcium measurement, antagonist activity at human P2X2/3 receptors (hP2X23 1321N1), Fluo8
# Type: cell-based
# Protocol Conditions: ratio of column 4) hP2X2/3 to column 3) hP2X3, 1321N1
Quantity Name: hP2X23/hP2X3* Selectivity (1321N1)
# print the numeric value only

See these solved cases before continuing.
>>> result("CCc1cc2n(CC(=O)Nc3ccc(F)cn3)c3c(c(=O)n2n1)CN(Cc1ccncc1)C3=O")
227
>>> result("CCc1cc2n(CC(=O)Nc3ccc(F)cn3)c3c(c(=O)n2n1)CN(C[C@H]1CN(C2CC2)CCO1)C3=O")
21

query: What value of hP2X23/hP2X3* Selectivity (1321N1) has been recorded for this entry: CC(C)N1Cc2c(n(CC(=O)Nc3ccc(F)cn3)c3cc(N(C)C)nn3c2=O)C1=O
result: 150

query: Param item = CC(C)c1cc2n(CC(=O)Nc3ccc(F)cn3)c3c(c(=O)n2n1)CN(CC(C)(C)O)C3=O ; retrieve measured hP2X23/hP2X3* Selectivity (1321N1).
result: 46

query: Entry Cc1ccc(-c2cc3n(CC(=O)Nc4ccc(F)cn4)c4c(c(=O)n3n2)CN([C@@H]2CCOC2)C4=O)nc1 has what hP2X23/hP2X3* Selectivity (1321N1)?
result: 367

query: # input compound: CC(C)N1Cc2c(n(CC(=O)Nc3ccc(F)cn3)c3cc(C4CCN(S(C)(=O)=O)C4)nn3c2=O)C1=O (racemic) ; wanted: its hP2X23/hP2X3* Selectivity (1321N1)
result: 118

query: Please look up its hP2X23/hP2X3* Selectivity (1321N1): CC(C)N1Cc2c(n(CC(=O)Nc3ccc(Cl)cn3)c3cc(C(F)(F)F)nn3c2=O)C1=O
result: 115

###

// log10 IC50 lookup, one value per entry
# Experimental Target: human P2X3 receptor (Homo sapiens, UniProt P56373)
# Sequence (P56373 1-397): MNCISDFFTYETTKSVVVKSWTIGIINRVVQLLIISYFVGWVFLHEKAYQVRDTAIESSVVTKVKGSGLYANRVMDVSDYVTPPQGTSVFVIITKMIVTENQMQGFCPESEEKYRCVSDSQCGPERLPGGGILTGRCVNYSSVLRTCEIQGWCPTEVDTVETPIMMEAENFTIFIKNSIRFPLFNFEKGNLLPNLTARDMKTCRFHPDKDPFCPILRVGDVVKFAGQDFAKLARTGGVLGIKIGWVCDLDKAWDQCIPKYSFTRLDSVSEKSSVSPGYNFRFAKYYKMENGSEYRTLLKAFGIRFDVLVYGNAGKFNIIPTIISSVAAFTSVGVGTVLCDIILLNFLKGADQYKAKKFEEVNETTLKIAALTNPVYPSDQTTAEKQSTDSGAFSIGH
# Assay Summary: Intracellular calcium measurement to assess antagonist activity at human P2X3 receptors (hP2X3 CHO), photina luminescence
# Type: cell-based
# Parameters: expressed in transfected cells; host or cells: Chinese hamster ovary (CHO) cells
# Protocol Conditions: column 2), CHO cells, agonist α,β-methylene-ATP at EC50
# Protocol: 2) Intracellular Calcium Measurement to Assess Antagonist Activity at Human P2X3 Receptors (hP2X3 CHO) The determination of antagonistic activity at the P2X3 receptor of the compounds of the invention was performed by use of a recombinant cell line. […] The strength of the photina luminescence signal corresponds to the level of receptor activation upon agonist binding. […]
Note the log scale: values are log10 of IC50 expressed in nM.

Here are 6 compounds together with their reported answers.
>>> result("COC[C@H](C)N1Cc2c(n(CC(=O)Nc3ccc(F)cn3)c3cc(Cl)nn3c2=O)C1=O [Example 102]")
2.06
>>> result("CC(C)N1Cc2c(n(CC(=O)Nc3ccc(F)cn3)c3cc(CC4CCOCC4)nn3c2=O)C1=O [Example 96]")
1.30
>>> result("CCNc1cc2n(CC(=O)Nc3ccc(F)cn3)c3c(c(=O)n2n1)CN(C(C)C)C3=O [Example 173]")
1.76
>>> result("CC(C)N1Cc2c(n(CC(=O)Nc3ccc(F)cn3)c3cc(C(=O)N4CCCCC4)nn3c2=O)C1=O [Example 183]")
1.36
>>> result("O=C(Cn1c2c(c(=O)n3nc(C(=O)Nc4ccccc4F)cc13)CN(CCN1CCOCC1)C2=O)Nc1ccc(F)cn1 [Example 220]")
1.65
>>> result("O=C(Cn1c2c(c(=O)n3nc(Cl)cc13)CN(CCN1CCOCC1)C2=O)Nc1ccc(F)cn1 [Example 105]")
1.89

query: What measured log10 IC50 is associated with CCc1cc2n(CC(=O)Nc3ccc(F)cn3)c3c(c(=O)n2n1)CN(C[C@H]1CCCO1)C3=O [Example 73] on human P2X3 receptor (Homo sapiens, UniProt P56373)?
result: 2.09

query: Short answer please: log10 IC50, human P2X3 receptor (Homo sapiens, UniProt P56373), entry Cc1ccc(-c2cc3n(CC(=O)Nc4ccc(F)cn4)c4c(c(=O)n3n2)CN(C(C)C)C4=O)cn1 [Example 154]
result: 1.32

query: Param readout = log10 IC50; param system = human P2X3 receptor (Homo sapiens, UniProt P56373); param query = CC(C)N1Cc2c(n(CC(=O)Nc3ccc(F)cn3)c3cc(C(=O)Nc4cccnc4)nn3c2=O)C1=O [Example 207] ; response: value
result: 1.23

query: Field: log10 IC50 (human P2X3 receptor (Homo sapiens, UniProt P56373)). Entry: CCc1cc2n(CC(=O)Nc3ccc(F)cn3)c3c(c(=O)n2n1)CN(C1CCNCC1)C3=O [Example 237]
result: 3.29

query: Form field - read-out: log10 IC50; system: human P2X3 receptor (Homo sapiens, UniProt P56373); submitted item: CC(C)N1Cc2c(n(CC(=O)Nc3ccc(F)cn3)c3cc(NC(=O)CO)nn3c2=O)C1=O [Example 289]
result: 2.39

query: Lookup: log10 IC50 / human P2X3 receptor (Homo sapiens, UniProt P56373) / CC(C)c1cc2n(CC(=O)Nc3ccc(F)cn3)c3c(c(=O)n2n1)CN(C(C)C)C3=O [Example 7]
result: 1.85

query: Write down the reported log10 IC50 of CC(C)N1Cc2c(n(CC(=O)Nc3ccc(F)cn3)c3cc(C(=O)NCC4CC4)nn3c2=O)C1=O [Example 187] , test system: human P2X3 receptor (Homo sapiens, UniProt P56373).
result: 1.32

query: Notebook: pull reported log10 IC50 for human P2X3 receptor (Homo sapiens, UniProt P56373), entry COCCN1Cc2c(n(CC(=O)Nc3ccc(F)cn3)c3cc(C4CC4)nn3c2=O)C1=O [Example 100]
result: 1.72

query: Form entry - test system: human P2X3 receptor (Homo sapiens, UniProt P56373); read-out: log10 IC50; compound: COCCN1Cc2c(n(CC(=O)Nc3ccc(F)cn3)c3cc(C4CCOCC4)nn3c2=O)C1=O [Example 97]
result: 1.82

query: Provide value of log10 IC50 for this record tested with human P2X3 receptor (Homo sapiens, UniProt P56373): CC(C)(C)c1cc2n(CC(=O)Nc3ccc(F)cn3)c3c(c(=O)n2n1)CN(C1COC1)C3=O [Example 27]
result: 2.07
